Biological target: MMP-9 (Homo sapiens, UniProt P14780)
Construct: from tissue; host or cells: human polymorphonuclear leukocytes (PMN) from whole blood (New York Blood Center), PMA-stimulated supernatant
Sequence (P14780 107-707 limits assumed): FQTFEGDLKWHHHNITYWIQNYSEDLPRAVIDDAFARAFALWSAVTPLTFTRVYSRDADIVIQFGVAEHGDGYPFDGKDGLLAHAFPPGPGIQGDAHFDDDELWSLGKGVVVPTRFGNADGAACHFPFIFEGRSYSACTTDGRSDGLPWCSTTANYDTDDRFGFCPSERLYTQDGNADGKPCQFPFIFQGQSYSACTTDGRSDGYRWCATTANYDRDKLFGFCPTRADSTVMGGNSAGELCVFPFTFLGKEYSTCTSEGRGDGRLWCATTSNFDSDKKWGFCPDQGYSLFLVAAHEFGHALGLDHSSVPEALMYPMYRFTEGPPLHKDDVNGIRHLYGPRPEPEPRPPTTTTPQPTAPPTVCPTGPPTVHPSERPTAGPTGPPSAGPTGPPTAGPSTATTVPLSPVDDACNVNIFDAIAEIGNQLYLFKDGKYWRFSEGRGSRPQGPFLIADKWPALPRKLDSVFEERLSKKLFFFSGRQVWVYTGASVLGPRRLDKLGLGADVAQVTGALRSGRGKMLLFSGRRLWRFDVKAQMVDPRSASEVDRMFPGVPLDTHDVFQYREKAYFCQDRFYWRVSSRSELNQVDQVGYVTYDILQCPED
Assay: Thiopeptilide MMP-9 Inhibition Assay
Format: biochemical
Conditions: pH 6.5; x (n) = average of n determinations; read-out: MMP-9: Thiopep. IC50
Reported values of pIC50 for individual entries
Friendly reminder that pIC50 comes from taking -log10 of the concentration in mol/L.

The reported value for N#Cc1ccc(-c2ccc(C(=O)CC(CCCc3ccccc3)C(=O)O)cc2)cc1 (stereo not drawn) [Example 56] in terms of pIC50 is 6.15

Continuing:
pIC50 measured on CC(C)CC(CC(=O)O)C(=O)c1ccc(-c2ccc(Cl)cc2)cc1 (single isomer, unassigned) [Example 4] = 5.57

In plain terms, O=C(O)CC(CSc1cccs1)C(=O)c1ccc(-c2ccc(Cl)cc2)cc1 (stereo not drawn) [Example 255] has a documented pIC50 of 5.70

For this compound ( O=C(O)CCc1ccc(SCC(CC(=O)c2ccc(-c3ccc(Cl)cc3)cc2)C(=O)O)cc1 (stereo not drawn) [Example 225] ), measured pIC50 is 6.26

For this compound ( O=Cc1ccc(-c2ccc(C(=O)CC(CCCc3ccccc3)C(=O)O)cc2)cc1 (stereo not drawn) [Example 78] ), measured pIC50 is 5.92

compound O=C(CC(CCCCCCc1ccccc1)C(=O)O)c1ccc(-c2ccc(Cl)cc2)cc1 (stereo not drawn) [Example 181] , pIC50 observed: 6.54

So for O=C(CC(CSc1ccc2ccccc2c1)C(=O)O)c1ccc(-c2ccc(Cl)cc2)cc1 (stereo not drawn) [Example 226] , the logged pIC50 turned out to be 6.59

Looking up Nc1ccc(-c2ccc(C(=O)CC(CCCc3ccccc3)C(=O)O)cc2)cc1 (stereo not drawn) [Example 58] , I see its pIC50 listed as 5.82
